The following molecules are listed with their measured pIC50 values.
Biological target: Mycothiol S-conjugate amidase (Mycobacterium tuberculosis, UniProt P9WJN1)
Sequence (P9WJN1 whole entry): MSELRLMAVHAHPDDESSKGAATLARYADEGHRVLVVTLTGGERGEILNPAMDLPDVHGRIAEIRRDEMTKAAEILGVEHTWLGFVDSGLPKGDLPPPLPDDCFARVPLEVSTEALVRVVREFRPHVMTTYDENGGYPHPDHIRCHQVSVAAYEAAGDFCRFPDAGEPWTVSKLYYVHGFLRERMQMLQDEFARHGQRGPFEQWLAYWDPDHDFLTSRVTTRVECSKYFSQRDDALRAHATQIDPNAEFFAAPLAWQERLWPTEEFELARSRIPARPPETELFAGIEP
pIC50: −log10 of the molar value.

molecule	target.under.test	pIC50
N=C(N)CCCCNC(=O)/C(Cc1cc(Br)c(OCCCN)c(Br)c1)=N/O	Mycothiol S-conjugate amidase (Mycobacterium tuberculosis, UniProt P9WJN1)	5.55
COC1=C(Br)C[C@]2(OC=C1Br)ON=C(C(=O)NCCOc1c(Br)cc(C(O)CN)cc1Br)[C@@H]2O (stereo partly specified)	Mycothiol S-conjugate amidase (Mycobacterium tuberculosis, UniProt P9WJN1)	4.59
O=C(NCCSSCCNC(=O)/C(Cc1ccc(O)c(Br)c1)=N/O)/C(Cc1ccc(O)c(Br)c1)=N/O [PSAMMAPLIN A]	Mycothiol S-conjugate amidase (Mycobacterium tuberculosis, UniProt P9WJN1)	5.55
Cc1cccc(C)c1SSCCNC(=O)/C(Cc1cccc(Br)c1)=N/O	Mycothiol S-conjugate amidase (Mycobacterium tuberculosis, UniProt P9WJN1)	4.19
O=C(NCCSSc1ccc(F)cc1)/C(Cc1cc(F)cc(F)c1)=N\O	Mycothiol S-conjugate amidase (Mycobacterium tuberculosis, UniProt P9WJN1)	2.57
NCCCOc1c(Br)cc(C/C(=N\O)C(=O)NCCc2c[nH]c(N)n2)cc1Br	Mycothiol S-conjugate amidase (Mycobacterium tuberculosis, UniProt P9WJN1)	4.44
COC1=C(Br)[C@@H](O)[C@]2(C=C1Br)CC(C(=O)NCCc1[nH]c(N)nc1-c1cc(O)c3ncc(O)c(O)c3c1O)=NO2	Mycothiol S-conjugate amidase (Mycobacterium tuberculosis, UniProt P9WJN1)	5.70
COC1=C(Br)C[C@]2(OC=C1Br)ON=C(C(=O)NCCOc1c(Br)cc(CCN)cc1Br)[C@@H]2O	Mycothiol S-conjugate amidase (Mycobacterium tuberculosis, UniProt P9WJN1)	4.70
O=C(NCCSSc1ccc(F)cc1)/C(Cc1ccc(O)c(Cl)c1)=N\O	Mycothiol S-conjugate amidase (Mycobacterium tuberculosis, UniProt P9WJN1)	4.43
COC1=C(Br)C[C@]2(C=C1Br)CC(C(=O)NCCc1c[nH]c(N)n1)=NO2	Mycothiol S-conjugate amidase (Mycobacterium tuberculosis, UniProt P9WJN1)	4.00
